List of IC50 tested on IRAK4 (Homo sapiens, UniProt Q9NWZ3).
Sequence (Q9NWZ3 whole entry): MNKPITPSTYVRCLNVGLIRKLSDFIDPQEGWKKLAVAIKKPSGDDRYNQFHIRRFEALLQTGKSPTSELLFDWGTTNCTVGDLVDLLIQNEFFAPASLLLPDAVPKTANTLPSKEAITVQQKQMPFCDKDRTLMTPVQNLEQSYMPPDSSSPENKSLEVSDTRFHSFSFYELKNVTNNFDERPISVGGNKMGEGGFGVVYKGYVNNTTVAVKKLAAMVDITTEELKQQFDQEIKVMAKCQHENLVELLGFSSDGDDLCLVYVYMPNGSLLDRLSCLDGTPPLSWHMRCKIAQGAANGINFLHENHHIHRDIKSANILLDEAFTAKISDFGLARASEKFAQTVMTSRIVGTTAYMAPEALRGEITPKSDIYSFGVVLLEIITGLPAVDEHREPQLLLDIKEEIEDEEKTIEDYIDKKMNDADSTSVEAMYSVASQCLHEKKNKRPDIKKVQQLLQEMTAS

smilesNotation | outputUnit | IC50
N#Cc1cccc(-c2cnc(Nc3cccc(C(=O)N4CCCC4)c3)nc2N[C@H]2[C@@H](C(N)=O)[C@@H]3C=C[C@H]2C3)c1 | nM | 13
NC(=O)[C@@H]1[C@H](Nc2nc(Nc3cccc(C(=O)N4CCCC4)c3)ncc2-c2ccoc2)[C@H]2C=C[C@@H]1C2 | nM | 2
NC(=O)[C@@H]1[C@H](Nc2nc(Nc3cccc(C(=O)N4CCCC4)c3)ncc2-c2ccccc2)[C@H]2C=C[C@@H]1C2 | nM | 10
N#Cc1cccc(-c2cnc(Nc3cccc(C(=O)N4CCCC4)c3)nc2N[C@H]2[C@@H](C#N)[C@@H]3C=C[C@H]2C3)c1 | nM | 3700
NC(=O)[C@@H]1[C@H](Nc2nc(Nc3cccc(C(=O)N4CCCC4)c3)ncc2C2CC2)[C@H]2C=C[C@@H]1C2 | nM | 6
Cc1cnc(Nc2cccc(C(=O)N3CCCC3)c2)nc1N[C@H]1[C@@H](C(N)=O)[C@@H]2C=C[C@H]1C2 | nM | 3
NC(=O)[C@@H]1[C@H](Nc2nc(Nc3cccc(C(=O)N4CCCC4)c3)ncc2-c2ccnc(F)c2)[C@H]2C=C[C@@H]1C2 | nM | 3
